All figures here come from ChEMBL document CHEMBL1132245.

testedOn: Neuronal acetylcholine receptor; alpha4/beta2 (Rattus norvegicus, UniProt P09483+P12390)
Sequence (P09483 whole entry): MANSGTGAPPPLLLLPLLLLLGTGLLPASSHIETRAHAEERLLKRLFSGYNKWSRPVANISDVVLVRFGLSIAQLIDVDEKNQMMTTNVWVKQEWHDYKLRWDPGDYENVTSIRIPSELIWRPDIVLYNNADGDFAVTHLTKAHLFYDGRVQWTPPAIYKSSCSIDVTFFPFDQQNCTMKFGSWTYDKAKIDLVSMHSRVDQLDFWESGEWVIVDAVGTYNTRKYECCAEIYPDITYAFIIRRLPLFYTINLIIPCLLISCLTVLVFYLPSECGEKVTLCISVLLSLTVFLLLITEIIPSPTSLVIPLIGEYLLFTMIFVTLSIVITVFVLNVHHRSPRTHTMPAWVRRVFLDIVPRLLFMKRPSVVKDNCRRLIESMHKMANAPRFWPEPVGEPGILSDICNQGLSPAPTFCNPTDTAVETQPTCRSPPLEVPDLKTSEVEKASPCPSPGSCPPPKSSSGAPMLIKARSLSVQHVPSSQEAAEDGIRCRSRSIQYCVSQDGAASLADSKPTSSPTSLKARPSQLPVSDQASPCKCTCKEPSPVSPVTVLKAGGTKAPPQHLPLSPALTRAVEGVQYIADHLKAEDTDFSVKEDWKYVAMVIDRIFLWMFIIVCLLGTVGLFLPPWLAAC
Sequence (P12390 whole entry): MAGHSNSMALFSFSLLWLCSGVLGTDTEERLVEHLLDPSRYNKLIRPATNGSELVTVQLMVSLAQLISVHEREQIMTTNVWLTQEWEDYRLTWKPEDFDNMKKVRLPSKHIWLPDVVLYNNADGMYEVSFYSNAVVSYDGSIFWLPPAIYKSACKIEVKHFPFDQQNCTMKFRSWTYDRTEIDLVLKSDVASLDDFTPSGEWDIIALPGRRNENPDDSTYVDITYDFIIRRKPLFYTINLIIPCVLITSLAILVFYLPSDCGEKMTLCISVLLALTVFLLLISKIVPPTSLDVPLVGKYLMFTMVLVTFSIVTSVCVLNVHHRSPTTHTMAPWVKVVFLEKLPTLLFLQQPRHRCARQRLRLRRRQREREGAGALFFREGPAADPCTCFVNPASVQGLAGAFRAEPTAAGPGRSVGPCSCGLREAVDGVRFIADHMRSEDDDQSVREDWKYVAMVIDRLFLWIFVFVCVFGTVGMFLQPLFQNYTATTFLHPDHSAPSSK
testProtocol: Inhibition of [3H](-)-nicotine binding to recombinant rat alpha4-beta2 nAChR.
Assay type: protein-complex assay
With a cut-off of 0.5 µM, any IC50 strictly below it is called Fulfilled; any IC50 meeting it or above is called Not fulfilled.

compound=O=C1NCCN1Cc1ccc(Cl)nc1 classassignment="Not fulfilled"

Incoming: is_below(IC50, 0.5 µM) for CCN(Cc1ccc(Cl)nc1)C(=N)NC ?
Outgoing: Not fulfilled

Incoming: I'd appreciate it if you could check whether CN1CCCC1c1cccnc1Cl (configuration not stated) has IC50 smaller than 0.5 µM.
Outgoing: Not fulfilled

Incoming: is_below(IC50, 0.5 µM) for Clc1ccc(Cn2ccnc2)cn1 ?
Outgoing: Fulfilled

Incoming: IC50 strictly < 0.5 µM for this compound? N=C1NCCN1Cc1ccc(Cl)nc1
Outgoing: Fulfilled

Incoming: # TODO verify IC50 < 0.5 µM strictly for this compound: NC1=NCCCS1
Outgoing: Not fulfilled

Incoming: Find out if reported IC50 for CN1CCCC1c1ccc(Cl)nc1 (configuration not stated) is less than 0.5 µM
Outgoing: Fulfilled

---

testedOn: Neuronal acetylcholine receptor; alpha4/beta2 (Rattus norvegicus, UniProt P09483+P12390)
testProtocol: Inhibition of [3H](-)-nicotine binding to recombinant rat alpha4-beta2 nAChR was determined; experiment 2
Type: protein-complex assay
experimentalReadout: IC50 (µM)
Numbers only; they are read as µM.

molecule=Clc1ccc(CN2CCN(Cc3ccc(Cl)nc3)CC2)cn1 experimentalreadout=IC50 measured=1.65
molecule=SC1=NCCN1Cc1ccc(Cl)nc1 experimentalreadout=IC50 measured=13.5

Lab note: next compound to report on.
Incoming: Given NC1=NCCO1 , respond with its IC50.
Outgoing: 95.3
